I'd appreciate it if you could supply relative viability values for the items below.
- Tested on: HCC-44
- Assay: relative viability (nuclei count vs DMSO), 5 days (fraction); higher = more cells survive
- Experimental context: first compound 0.1 µM
// print number alone

// lookup relative viability for Cc1cn(-c2cc(NC(=O)c3ccc(C)c(Nc4nccc(-c5cccnc5)n4)c3)cc(C(F)(F)F)c2)cn1 [Nilotinib] + Nc1ncn([C@H]2C[C@H](O)[C@@H](CO)O2)c(=O)n1 [Decitabine] (partner 2 µM)
0.918

// lookup relative viability for Cc1cn(-c2cc(NC(=O)c3ccc(C)c(Nc4nccc(-c5cccnc5)n4)c3)cc(C(F)(F)F)c2)cn1 [Nilotinib] + CS(=O)(=O)CCNCc1ccc(-c2ccc3ncnc(Nc4ccc(OCc5cccc(F)c5)c(Cl)c4)c3c2)o1 [Lapatinib] (partner 2 µM)
0.869

// lookup relative viability for Cc1cn(-c2cc(NC(=O)c3ccc(C)c(Nc4nccc(-c5cccnc5)n4)c3)cc(C(F)(F)F)c2)cn1 [Nilotinib] + CC(C)C[C@H](NC(=O)[C@H](Cc1ccccc1)NC(=O)c1cnccn1)B(O)O [Bortezomib] (partner 0.002 µM)
0.873

// lookup relative viability for Cc1cn(-c2cc(NC(=O)c3ccc(C)c(Nc4nccc(-c5cccnc5)n4)c3)cc(C(F)(F)F)c2)cn1 [Nilotinib] + O=C(CCCCCCC(=O)Nc1ccccc1)NO [Vorinostat] (partner 1 µM)
1.07

// lookup relative viability for Cc1cn(-c2cc(NC(=O)c3ccc(C)c(Nc4nccc(-c5cccnc5)n4)c3)cc(C(F)(F)F)c2)cn1 [Nilotinib] + CC(=O)Nc1cccc(-n2c(=O)n(C3CC3)c(=O)c3c(Nc4ccc(I)cc4F)n(C)c(=O)c(C)c32)c1 [Trametinib] (partner 0.02 µM)
0.774
